# experimental-target: Glucocorticoid receptor (Homo sapiens) (UniProt P04150)
# Sequence (P04150 whole entry, looked up): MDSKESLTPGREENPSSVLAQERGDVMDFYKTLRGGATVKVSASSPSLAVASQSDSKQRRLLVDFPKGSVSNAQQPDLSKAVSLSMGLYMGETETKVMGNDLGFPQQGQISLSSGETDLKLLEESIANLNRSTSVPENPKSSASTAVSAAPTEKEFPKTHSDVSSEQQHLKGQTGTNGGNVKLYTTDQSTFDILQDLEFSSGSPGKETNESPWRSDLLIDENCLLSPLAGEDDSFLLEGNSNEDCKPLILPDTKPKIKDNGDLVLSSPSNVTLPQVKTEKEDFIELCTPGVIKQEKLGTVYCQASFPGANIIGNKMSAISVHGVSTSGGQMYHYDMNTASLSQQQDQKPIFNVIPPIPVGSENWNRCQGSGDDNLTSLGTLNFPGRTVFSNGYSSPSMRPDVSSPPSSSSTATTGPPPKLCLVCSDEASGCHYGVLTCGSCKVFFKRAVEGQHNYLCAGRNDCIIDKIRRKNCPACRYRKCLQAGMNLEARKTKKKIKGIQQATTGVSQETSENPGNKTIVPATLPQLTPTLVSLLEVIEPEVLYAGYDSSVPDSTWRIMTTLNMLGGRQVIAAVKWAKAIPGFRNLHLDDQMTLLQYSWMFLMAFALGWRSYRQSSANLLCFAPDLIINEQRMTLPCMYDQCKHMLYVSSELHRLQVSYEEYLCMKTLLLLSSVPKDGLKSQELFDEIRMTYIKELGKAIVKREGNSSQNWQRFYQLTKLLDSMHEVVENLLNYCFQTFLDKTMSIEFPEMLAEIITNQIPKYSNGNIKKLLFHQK
# test-description: qHTS assay to identify small molecule antagonists of the glucocorticoid receptor (GR) signaling pathway (AID 720692); note: % is set by controls: 0 for no effect and ±100 for the full control effect
# experimental-parameters: GR-bla HeLa, beta-lactamase FRET ratio, dexamethasone-stimulated, 18 h; series mostly up to 58.5 µM
Inconclusive results are not listed. Active and inactive are the calls of the source. Calls come from the whole dose curve; as a rule, active = well fitted inhibition curve with a large enough effect in the signal ratio in the repeat runs (not every such curve was filed as active); inconclusive = weak or mixed curves, or effect the other way; inactive = no such curve, though single readings can be large or run the other way; the % refers to the signal ratio.
Hi there, use one of these labels in your reply, thanks! true = active, false = inactive

**Q:** Assay outcome for `COc1cc([C@H]2Oc3cc([C@H]4Oc5cc(O)cc(O)c5C(=O)[C@@H]4O)ccc3O[C@@H]2CO)ccc1O` : what was it?
**A:** false

Please turn your attention to the following entry.
**Q:** Assay outcome for `CC(C)(C)c1cccc(C(C)(C)C)c1O` : what was it?
**A:** false

* * *

# experimental-target: Cytochrome P450 2C19 (Homo sapiens) (UniProt P33261)
# Sequence (P33261 whole entry, looked up): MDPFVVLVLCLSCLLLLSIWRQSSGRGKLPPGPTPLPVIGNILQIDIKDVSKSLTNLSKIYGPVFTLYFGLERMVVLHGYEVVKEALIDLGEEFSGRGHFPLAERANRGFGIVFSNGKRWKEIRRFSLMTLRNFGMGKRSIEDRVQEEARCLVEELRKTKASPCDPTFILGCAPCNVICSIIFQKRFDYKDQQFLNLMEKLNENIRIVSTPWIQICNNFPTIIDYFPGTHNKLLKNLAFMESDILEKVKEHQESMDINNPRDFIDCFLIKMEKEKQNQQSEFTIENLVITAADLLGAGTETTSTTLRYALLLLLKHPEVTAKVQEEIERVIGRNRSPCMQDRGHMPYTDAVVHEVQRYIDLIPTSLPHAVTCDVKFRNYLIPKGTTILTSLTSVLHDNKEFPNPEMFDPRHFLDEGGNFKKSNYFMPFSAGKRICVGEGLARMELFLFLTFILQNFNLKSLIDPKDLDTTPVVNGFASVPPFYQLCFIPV
# test-description: Cytochrome P450 Family 2 Subfamily C Member 19 (CYP2C19) small molecule antagonists: luciferase reporter qHTS assay (AID 1671197); note: % is set by controls: 0 for no effect and ±100 for the full control effect; nearly all actives have a fitted effect of over 65% in size
# experimental-parameters: P450-Glo CYP2C19 enzyme, luciferin luminescence, 1 h; series mostly up to 115 µM
Inconclusive results are not listed. Active and inactive are the calls of the source. Calls follow the shape of the dose curve; as a rule, active = well fitted inhibition curve with a large enough effect in the repeat runs; inconclusive = weak or mixed curves; inactive = no such curve, though single readings can be large or run the other way.
Hi there, use one of these labels in your reply, thanks! 1.0 for active, 0.0 for inactive

**Q:** Assay outcome for `Cc1ccc2c(c1)C(=O)OC2=O` : what was it?
**A:** 0.0

**Q:** Assay outcome for CCC(Cc1c(I)cc(I)c(N)c1I)C(=O)O (stereo unspecified) : what was it?
**A:** 0.0

**Q:** Assay outcome for CCCCCCCCCCC(CO)CCCCCCCC (stereo unspecified) : what was it?
**A:** 0.0

* * *

# experimental-target: Aromatase (Homo sapiens)
# test-description: qHTS assay to identify aromatase inhibitors (AID 743083); note: % is set by controls: 0 for no effect and ±100 for the full control effect; nearly all actives have a fitted effect of over 55% in size
# experimental-parameters: MCF-7 aro ERE, testosterone-driven ERE luciferase, 24 h; series mostly up to 70.3 µM
Inconclusive results are not listed. Activity calls are given as the source filed them. Calls follow the shape of the dose curve; as a rule, active = well fitted inhibition curve with a large enough effect in the repeat runs; inconclusive = weak or mixed curves; inactive = no such curve, though single readings can be large or run the other way.
endpoint-name: outcome

Example results:
Memo: `Cc1ccc(N)c([N+](=O)[O-])c1` , reported outcome: inactive

Memo: `OC[C@H]1O[C@@H]2O[C@H]3[C@H](O)[C@@H](O)[C@@H](O[C@H]4[C@H](O)[C@@H](O)[C@@H](O[C@H]5[C@H](O)[C@@H](O)[C@@H](O[C@H]6[C@H](O)[C@@H](O)[C@@H](O[C@H]7[C@H](O)[C@@H](O)[C@@H](O[C@H]1[C@H](O)[C@H]2O)O[C@@H]7CO)O[C@@H]6CO)O[C@@H]5CO)O[C@@H]4CO)O[C@@H]3CO` , reported outcome: inactive

Memo: `CC1(C)OC(=O)NC1=O` , reported outcome: inactive

Memo: `Cc1ccc(C)c(O)c1` , reported outcome: inactive

Memo: `Nc1ccc2c(O)cc(S(=O)(=O)O)cc2c1` , reported outcome: inactive

// next entry
Memo: `C=C[C@H]1CN2CC[C@H]1C[C@@H]2[C@@H](O)c1ccnc2ccc(OC)cc12` , reported outcome: inactive

* * *

# test-description: qHTS assay for small molecule activators of the heat shock response signaling pathway (AID 743210);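 note: HeLa cells with beta-lactamase reporter driven by heat shock elements; % is set by controls: 0 for no effect and ±100 for the full control effect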
# experimental-parameters: HeLa HSE-bla reporter, beta-lactamase ratio, 5 h; series mostly up to 62.6 µM
Results filed as inconclusive are left out. Active and inactive are the calls of the source. Calls follow the shape of the dose curve; as a rule, active = well fitted activation curve with a large enough effect in the signal ratio in the repeat runs, with a control signal flat (not every such curve was filed as active); inconclusive = weak or mixed curves; inactive = flat fitted curve, though single readings scatter; the % refers to the signal ratio.
endpoint-name: outcome

Example results:
Memo: `NC[C@H](O)c1ccc(O)c(O)c1` , reported outcome: inactive

Memo: `CC(C)(C)c1cccc(C(C)(C)C)c1O` , reported outcome: inactive

Memo: `O=Cc1ccccc1C=O` , reported outcome: inactive

Memo: `Cc1ccc(C)c(O)c1` , reported outcome: inactive

Memo: `C1COCCN1` , reported outcome: inactive

Memo: `Cc1cccc(Nc2ccccc2C(=O)O)c1C` , reported outcome: inactive

Memo: `CCC(=O)O[C@H]1[C@H](O[C@@H]2[C@@H](C)[C@H](O[C@H]3C[C@@](C)(OC)[C@@H](O)[C@H](C)O3)[C@@H](C)C(=O)O[C@H](CC)[C@@](C)(O)[C@H](O)[C@@H](C)C(=O)[C@H](C)C[C@@]2(C)O)O[C@H](C)C[C@@H]1N(C)C` , reported outcome: inactive

Memo: `C=C1C[C@H]2[C@@H]3C=C(C)C4=CC(=O)CC[C@]4(C)[C@H]3CC[C@]2(C)[C@@]1(OC(C)=O)C(C)=O` , reported outcome: inactive

Below is a list of molecules. For each, state its recorded outcome.
1. CC(=O)Oc1c(C)c(C)c2c(c1C)CC[C@@](C)(CCC[C@H](C)CCC[C@H](C)CCCC(C)C)O2
2. Cc1ccc2c(c1)C(=O)OC2=O
3. C=CCCCCCCCCCC

**A:**
["inactive", "inactive", "inactive"]

Below is a list of molecules. For each, state its recorded outcome.
1. CC(=O)O[C@]1(C(C)=O)CC[C@H]2[C@@H]3C=C(Cl)C4=CC(=O)CC[C@]4(C)[C@H]3CC[C@@]21C
2. CCCOCCO
3. CN1CCOCC1
4. NCCN
5. COc1ccc(C(=O)c2ccccc2O)c(O)c1
6. C=CCOC(=O)C(=C)C

**A:**
["inactive", "inactive", "inactive", "inactive", "inactive", "inactive"]
